Tested on: KB
Assay: Cytotoxicity against human KB cells
Format: functional
Details: read-out: ED50 (the source's name)
Response field label: string, one of yes (1) (EC50 strictly below 10 µM) or no (0).

- C=C1C(=O)O[C@H]2C=C(C)[C@H]3[C@@H](OC(C)=O)C[C@@](C)(O)[C@@H]3C[C@H]12: yes (1)
- C=C1C(=O)O[C@@H]2C3O[C@]3(C)CC/C=C(\C)CC[C@@H]12 (stereo not given in full): yes (1)
- C=C1C(=O)O[C@@H]2[C@H]1CC[C@H](C)[C@]1(O)CCC(=O)[C@@]21C: yes (1)
- C=C[C@]12COC(=O)C(=C)[C@H]1[C@H](OC(C)=O)[C@H]1C(=C)C(=O)O[C@@H]1C2 [VERNOMENIN ACETATE]: no (0)
